Value source: a melting point compilation (Tetko et al.; mined from patent text by program, amines drawn as free bases though some values may be those of a salt)

measure_name: melting point

Answered examples (4):
INSERT INTO assay_data (line_notation, result) VALUES
  ('Cc1cc(CNC2CC2)cc(C)c1Oc1ccc([N+](=O)[O-])c(Nc2ccc(C#N)cc2)n1', '175 to 177 °C'),
  ('COc1ccnc(NC(N)=S)c1', '214 to 217 °C'),
  ('CC(=O)N1CC=C(c2cc3c(cc2F)c(=O)c2c(=O)[nH]sc2n3C2CC2)CC1', '243 to 244 °C'),
  ('Cc1cc(OCC(=O)NCCO[N+](=O)[O-])no1', '93 to 94 °C');

(Q) Endpoint output: melting point of CON=CC1=CCCN(C(=O)OCCc2ccc([N+](=O)[O-])cc2)C1 . Value?
(A) 93 to 94 °C

----------
measure_name: melting point

Answered examples (5):
INSERT INTO assay_data (compound, measure_name, result) VALUES
  ('CC1CC2=CC(=O)CCC2C2C(F)CC3(C)C(=O)CCC3C12 (centres undefined)', 'melting point', '84.8 °C'),
  ('O=C(N[C@H](Cc1ccc(C(F)(F)F)cc1)[C@@H](O)c1cccc(Cl)n1)c1ccc(F)c2ccccc12 (racemic)', 'melting point', '225 to 226 °C'),
  ('O=C1NC(=S)NC1Cc1c[nH]c2ccccc12 (centres undefined)', 'melting point', '206 to 210 °C'),
  ('COc1cc2c(c3c1OC(C)(C)C3)C(c1cccc(NC(=O)C3CCC(=O)N3)c1)=NC(C)(C)C2 (centres undefined)', 'melting point', '145 to 147 °C'),
  ('N#Cc1cc(-c2cc(C(F)F)c3cnn(C4CCCCO4)c3n2)ccc1N (centres undefined)', 'melting point', '192 °C');

(Q) Endpoint output: melting point of C=C(C)C(=O)OCCOC(Cl)C(Cl)(Cl)Cl (centres undefined) . Value?
(A) 44 to 45 °C

(Q) Endpoint output: melting point of O=C1c2cccc(NCc3ccccc3)c2C(=O)c2cccc(NCc3ccccc3)c21 . Value?
(A) 218 to 220 °C

(Q) Endpoint output: melting point of CCOC(=O)c1[nH]cc2c1NC1=C(C(=O)CNC1)C2c1ccc(Sc2nc3cc(F)c(F)cc3[nH]2)o1 (centres undefined) . Value?
(A) 190 to 196 °C

(Q) Endpoint output: melting point of COc1cc(CN2CCN(C(=O)C3=Cc4ccc(OC(=O)c5ccccc5)cc4CC3)CC2)cc(OC)c1OC . Value?
(A) 117 to 119 °C

(Q) Endpoint output: melting point of COC1(c2ccccc2)CCc2c(C(=O)N3CCC3)cc3c(nc(C)n3C)c2O1 (centres undefined) . Value?
(A) 147 to 150 °C

(Q) Endpoint output: melting point of Nc1ncnc2ncn(Cc3ccccc3)c12 . Value?
(A) 252 to 255 °C

(Q) Endpoint output: melting point of CC1(C)CC(=O)c2cc(O)ccc2S1 . Value?
(A) 135 to 142 °C

(Q) Endpoint output: melting point of CC(=O)NCc1ccc(CN2CCN(c3ccccc3)CC2)cc1N . Value?
(A) 148 to 149 °C

(Q) Endpoint output: melting point of CCc1ccnc(C(=O)c2[nH]c3ccc(Cl)cc3c2CC(=O)O)c1 . Value?
(A) 217 to 218 °C

----------
Below, each entry is listed with its recorded melting point.

Answered examples (3):
INSERT INTO measurements (molecule, measure_name, result) VALUES
  ('CC(=O)NNc1ccc(-n2c(-c3ccccc3)csc2=S)cc1', 'melting point', '230 to 232 °C'),
  ('O=C1c2ccccc2C(=O)N1CCCCCSc1ccccc1', 'melting point', '87 to 88 °C'),
  ('Cc1oc(-c2cc3ccccc3s2)nc1COc1ccc(CCCn2ccnc2)cc1', 'melting point', '142 to 143 °C');

(Q) Endpoint output: melting point of Cc1cc(C)c2c(-c3ccc(C(C)C)cc3)csc2c1 . Value?
(A) 83 to 84 °C

(Q) Endpoint output: melting point of CCNc1cc2ncnc(N3CCN(C(=O)Nc4ccc(Oc5ccccc5)cc4)CC3)c2cc1[N+](=O)[O-] . Value?
(A) 242 to 244 °C

(Q) Endpoint output: melting point of CCOC(=O)c1c(Nc2ccccc2OC)n[nH]c1C . Value?
(A) 162 to 172 °C

(Q) Endpoint output: melting point of CCOC(=O)C1=CC2(CCC1S(=O)(=O)Nc1ccc(F)cc1Cl)O[C@H]([C@H](O)CO)[C@@H]([C@H](O)CO)O2 (some centres undefined) . Value?
(A) 55 to 56 °C

(Q) Endpoint output: melting point of O=C(O)COc1ccc(-c2nn(-c3ccccc3)c3ncccc23)cc1 . Value?
(A) 220 to 222 °C

(Q) Endpoint output: melting point of NC(=S)C(F)(F)c1ccccc1 . Value?
(A) 99 to 100 °C

----------
Below, each entry is listed with its recorded melting point.

Answered examples (2):
INSERT INTO measurements (compound, result) VALUES
  ('CCCc1nc2ccc(NS(C)(=O)=O)cc2n1Cc1ccccc1Cl', '191 to 193 °C'),
  ('CN(C)CC(C(O)c1ccc([N+](=O)[O-])cc1)N1CCC(Cc2ccccc2)CC1 (stereo not drawn)', '132 to 135 °C');

# ---- query compound ----
(Q) Endpoint output: melting point of CC12CC(F)C3c4ccc(O)cc4CC(CCCCCN4CCCC4)C3C1CCC2O (stereo not drawn) . Value?
(A) 95 to 118 °C

----------
Below, each entry is listed with its recorded melting point.

Answered examples (3):
INSERT INTO assay_data (compound, measure_name, result) VALUES
  ('COc1cc2[nH]c3ncnc(N4CCNCC4)c3c2cc1OC', 'melting point', '185 °C'),
  ('Cc1nc(C)c(-c2ccnc(Nc3cccc(S(=O)(=O)NCCO)c3)n2)s1', 'melting point', '184 to 186 °C'),
  ('CS(=O)(=O)OC(c1ccc(C(OS(C)(=O)=O)(C(F)(F)F)C(F)(F)F)cc1)(C(F)(F)F)C(F)(F)F', 'melting point', '151 °C');

(Q) Endpoint output: melting point of CCCOc1ncc(NC(C)=O)cc1-c1nc2c(CCC)nn(C)c2c(=O)[nH]1 . Value?
(A) 252 to 253 °C

(Q) Endpoint output: melting point of Nc1ccc2ccccc2c1-c1c(O)ccc2ccccc12 . Value?
(A) 236 to 237 °C

(Q) Endpoint output: melting point of CN1CCN(c2ccc(-c3nc4c(N[C@H]5[C@@H](C(N)=O)[C@@H]6C=C[C@H]5C6)ccnc4[nH]3)cc2)CC1 . Value?
(A) 220 to 222 °C

(Q) Endpoint output: melting point of O=C1Nc2ccc(Cl)cc2C1(O)c1ccccc1C(F)(F)F (stereo unspecified) . Value?
(A) 205 to 208 °C

(Q) Endpoint output: melting point of COc1ccc2cc(-c3cnc(-c4cn(C)c5ccccc45)o3)ccc2c1 . Value?
(A) 187 to 189 °C

(Q) Endpoint output: melting point of Cc1cc(SCCc2cccc3sc(-c4ccc(C(F)(F)F)cc4)nc23)ccc1OCC(=O)O . Value?
(A) 97 to 100 °C

(Q) Endpoint output: melting point of O=C(O)c1ccc(C(=O)/C=C/c2ccc(-c3cncnc3)cc2)cc1 . Value?
(A) > 260 °C

(Q) Endpoint output: melting point of CCOC(=O)C1CCN(c2nnc(NCc3ccc4c(c3)OCO4)c3ccncc23)CC1 . Value?
(A) 135 to 136 °C

(Q) Endpoint output: melting point of CC(C)(N)CNc1ccc(C2=NNC(=O)CC2)cc1 . Value?
(A) 190 to 192 °C

(Q) Endpoint output: melting point of CCN(CC)CCSC1=C(C#N)C(c2ccccc2)(c2cccc(C(F)(F)F)c2)C(=O)N1 (stereo unspecified) . Value?
(A) 127 °C

(Q) Endpoint output: melting point of N#CCCNC(=S)C1=CC(CF)(CF)Oc2ccc(C(F)(F)C(F)(F)C(F)(F)F)cc21 . Value?
(A) 94 to 95 °C

(Q) Endpoint output: melting point of S=C(c1ccc(Br)cc1)N1CCOCC1 . Value?
(A) 135 to 137 °C

(Q) Endpoint output: melting point of CC1=C(C(=O)Nc2ccccc2)SC2=NCCN21 . Value?
(A) 204 to 205 °C

(Q) Endpoint output: melting point of COc1ccc2c(c1)C13CCN(C#N)C(C2)C1C(C)CC(=O)C3 (stereo unspecified) . Value?
(A) 202 to 205 °C

(Q) Endpoint output: melting point of COc1ccc2cc(-c3cncn3C)cc(C)c2n1 . Value?
(A) 160 to 162 °C

(Q) Endpoint output: melting point of O=C(O)CNC(=O)CCCCc1ccccc1 . Value?
(A) 93 to 96 °C

(Q) Endpoint output: melting point of Cc1c(C(F)(F)F)nn(-c2c(Cl)cc(C(F)(F)F)cc2Cl)c1N . Value?
(A) 97 to 100 °C

(Q) Endpoint output: melting point of CC(C)N1C(=O)c2ccccc2N(S(C)(=O)=O)S1(=O)=O . Value?
(A) 156 to 158 °C

(Q) Endpoint output: melting point of NC(=O)c1ccc(-c2ccccc2OCC2CC2)[nH]c1=O . Value?
(A) 160 to 162 °C
